# Study System: T1, Human IGF-1R protein (human, UniProt P08069 31-932)
# T1 construct: Bought protein; also called human IGF-1R (ARCO, No. IGR-H5229)
# T1 sequence (P08069 31-932 limits assumed): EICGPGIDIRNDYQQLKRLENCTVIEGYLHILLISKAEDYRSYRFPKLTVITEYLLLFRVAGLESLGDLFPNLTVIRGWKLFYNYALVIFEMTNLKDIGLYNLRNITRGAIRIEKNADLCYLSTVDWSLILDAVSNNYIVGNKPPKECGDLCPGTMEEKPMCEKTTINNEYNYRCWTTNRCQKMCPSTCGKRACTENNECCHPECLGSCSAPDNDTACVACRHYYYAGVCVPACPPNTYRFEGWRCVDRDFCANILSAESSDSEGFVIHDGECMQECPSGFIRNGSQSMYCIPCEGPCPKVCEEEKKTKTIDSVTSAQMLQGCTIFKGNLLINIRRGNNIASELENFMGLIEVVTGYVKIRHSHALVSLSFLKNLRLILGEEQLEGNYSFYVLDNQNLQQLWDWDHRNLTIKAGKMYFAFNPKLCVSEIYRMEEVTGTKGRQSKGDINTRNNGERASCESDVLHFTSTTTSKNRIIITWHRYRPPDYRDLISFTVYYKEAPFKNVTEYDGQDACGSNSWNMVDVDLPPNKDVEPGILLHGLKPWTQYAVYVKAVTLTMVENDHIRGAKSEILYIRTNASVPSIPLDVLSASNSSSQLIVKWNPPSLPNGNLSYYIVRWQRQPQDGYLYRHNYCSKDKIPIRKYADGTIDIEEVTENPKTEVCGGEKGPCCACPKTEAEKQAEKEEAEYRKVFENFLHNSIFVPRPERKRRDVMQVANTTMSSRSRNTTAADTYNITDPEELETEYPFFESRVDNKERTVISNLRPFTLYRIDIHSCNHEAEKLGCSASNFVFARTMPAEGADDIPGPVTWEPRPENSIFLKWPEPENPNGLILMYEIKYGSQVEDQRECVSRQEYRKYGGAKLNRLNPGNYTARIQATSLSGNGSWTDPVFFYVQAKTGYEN
# Protocol Details: BLI (Octet RED96), antibody captured on AHC biosensor, IGF-1R in solution, 1:1 model
Use Criterion met when the recorded koff is no lower than 0.0005 s⁻¹; use Criterion not met when it is lower.

Reference set, count: 3
>>> class("PHP1003-2 (antibody, human IgG1, kappa, L234A L235A, V domains shown, Variable and constant regions are directly spliced) VH: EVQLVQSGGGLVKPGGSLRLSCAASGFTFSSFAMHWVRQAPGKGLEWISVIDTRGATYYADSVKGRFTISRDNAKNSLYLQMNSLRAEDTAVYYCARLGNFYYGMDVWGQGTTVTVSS VL: EIVLTQSPGTLSVSPGERATLSCRASQSIGSSLHWYQQKPGQAPRLLIKYASQSLSGIPDRFSGSGSGTDFTLTISRLEPEDFAVYYCHQSSRLPHTFGQGTKVEIKR")
"Criterion met"
>>> class("PHP1003-6 (antibody, human IgG1, kappa, L234A L235A, V domains shown, Variable and constant regions are directly spliced) VH: QVQLQESGGGVVQPGRSLRLSCSASGFTFSDYYMYWVRQAPGKGLEWVAYITNYGGSTYYPDTVKGRFTISRDNAKNTLFLQMDSLRPEDTGVYFCARQSNYDYDGWFAYWGQGTPVTVSS VL: DIQLTQSPSSLSASVGDRVTITCKASQEVGTAVAWYQQKPGKAPKLLIYWASTRHTGVPSRFSGSGSGTDFTFTISSLQPEDIATYFCQQYSNYPLTFGQGTKVEIKR")
"Criterion not met"
>>> class("PHP1003-7 (antibody, human IgG1, kappa, L234A L235A, V domains shown, Variable and constant regions are directly spliced) VH: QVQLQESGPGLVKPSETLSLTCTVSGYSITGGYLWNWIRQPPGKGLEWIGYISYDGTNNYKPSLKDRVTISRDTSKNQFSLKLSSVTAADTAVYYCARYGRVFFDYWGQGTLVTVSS VL: DIVMTQSPLSLPVTPGEPASISCRSSQSIVHSNGNTYLQWYLQKPGQSPQLLIYKVSNRLYGVPDRFSGSGSGTDFTLKISRVEAEDVGVYYCFQGSHVPWTFGQGTKVEIKR")
"Criterion met"

# check: koff of PHP1003-5 (antibody, human IgG1, kappa, L234A L235A, V domains shown, Variable and constant regions are directly spliced) VH: EVQLLESGGGLVQPGGSLRLSCTASGFTFSSYAMNWVRQAPGKGLEWVSAISGSGGTTFYADSVKGRFTISRDNSRTTLYLQMNSLRAEDTAVYYCAKDLGWSDSYYYYYGMDVWGQGTTVTVSS VL: DIQMTQFPSSLSASVGDRVTITCRASQGIRNDLGWYQQKPGKAPKRLIYAASRLHRGVPSRFSGSGSGTEFTLTISSLQPEDFATYYCLQHNSYPCSFGQGTKLEIKR is greater than or equal to 0.0005 s⁻¹
Criterion not met

Given the entry PHP1003-4 (antibody, human IgG1, kappa, L234A L235A, V domains shown, Variable and constant regions are directly spliced) VH: EVQLVQSGAEVKKPGSSVKVSCKASGGTFSSYAISWVRQAPGQGLEWMGGIIPIFGTANYAQKFQGRVTITADKSTSTAYMELSSLRSEDTAVYYCARAPLRFLEWSTQDHYYYYYMDVWGKGTTVTVSS VL: SSELTQDPAVSVALGQTVRITCQGDSLRSYYATWYQQKPGQAPILVIYGENKRPSGIPDRFSGSSSGNTASLTITGAQAEDEADYYCKSRDGSGQHLVFGGGTKLTVLR , answer whether its koff meets or surpasses 0.0005 s⁻¹.
Criterion met
